System: L. donovani amastigotes in THP-1 macrophages, DAPI imaging, 72 h
Test: L. donovani intracellular amastigote growth inhibitors, imaging, THP-1 host macrophages, single concentration (AID 977614);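 note: signal is the parasite per host cell ratio from DAPI stained kinetoplasts and nuclei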
Calls of active or inactive are those of the source.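 Rule for the calls: active = parasite count per well reduced by over 3 SD from the mean, with host cell number above 80% of untreated; inactive = the rest.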
attributeMeasured: AC50

Use these answered entries as a reference point.
| sampleSmiles | AC50 |
| --- | --- |
| COc1ccccc1S(=O)(=O)N(C)C[C@@H]1OCc2cn(nn2)CCCC(=O)N([C@H](C)CO)C[C@@H]1C | > 10 µM (inactive) |
| C[C@H](CO)N1C[C@H](C)[C@H](CN(C)S(=O)(=O)c2cccc(C#N)c2)OCc2cn(nn2)CCCC1=O | > 10 µM (inactive) |
| COc1ccc(C(=O)N2C[C@H]3[C@@H](c4ccccc42)[C@H](CO)N3Cc2ccccc2Cl)cc1 | > 10 µM (inactive) |
| O=C(NC[C@@H]1[C@@H](c2ccccc2)[C@H](CO)N1C(=O)Cc1ccncc1)C1CCC1 | > 10 µM (inactive) |
| O=C(CC(F)(F)F)N1C[C@@H]2[C@H](c3ccccc31)[C@@H](CO)N2C(=O)C1CCCCC1 | > 10 µM (inactive) |

[in] State, in one line, measured AC50 of `C/C=C/c1ccc([C@H]2[C@@H](CO)N(S(C)(=O)=O)[C@@H]2CN(C(C)=O)C(C)C)cc1`
[out] > 10 µM (inactive)

[in] State, in one line, measured AC50 of `Cc1noc(C)c1NC(=O)N(C)C[C@H]1OCc2cn(nn2)CCCC(=O)N([C@H](C)CO)C[C@H]1C`
[out] > 10 µM (inactive)

[in] State, in one line, measured AC50 of `COc1cccc(C(=O)N2C[C@H]3[C@@H](c4ccccc42)[C@@H](CO)N3C(=O)c2cccc(F)c2)c1`
[out] > 10 µM (inactive)

[in] State, in one line, measured AC50 of `O=S(=O)(NC[C@@H]1[C@H](c2ccccc2)[C@H](CO)N1CC1CC1)c1ccccc1`
[out] > 10 µM (inactive)

---

Test system: L. donovani amastigotes in THP-1 macrophages, DAPI imaging, 72 h
Assay: L. donovani intracellular amastigote growth inhibitors, imaging, THP-1 host macrophages, single concentration (AID 977614);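 note: signal is the parasite per host cell ratio from DAPI stained kinetoplasts and nuclei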
Calls of active or inactive are those of the source.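 Rule for the calls: active = parasite count per well reduced by over 3 SD from the mean, with host cell number above 80% of untreated; inactive = the rest.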
Below, each entry is listed with its recorded AC50.

| sampleSmiles | studySystem | AC50 |
| --- | --- | --- |
| C[C@@H]1CN([C@@H](C)CO)C(=O)CCCn2nncc2CO[C@@H]1CN(C)Cc1cccc(C(F)(F)F)c1 | L. donovani amastigotes in THP-1 macrophages, DAPI imaging, 72 h | > 10 µM (inactive) |
| C[C@@H]1CN([C@@H](C)CO)C(=O)CCCn2cc(nn2)CO[C@H]1CN(C)S(=O)(=O)c1ccc(-n2cccn2)cc1 | L. donovani amastigotes in THP-1 macrophages, DAPI imaging, 72 h | > 10 µM (inactive) |
| O=C(c1ccccc1F)N1C[C@H]2[C@@H](c3ccccc31)[C@H](CO)N2Cc1ccc2c(c1)OCO2 | L. donovani amastigotes in THP-1 macrophages, DAPI imaging, 72 h | > 10 µM (inactive) |
| Cc1cccc(S(=O)(=O)N2C[C@H]3[C@@H](c4ccccc42)[C@H](CO)N3Cc2ccc3c(c2)OCO3)c1 | L. donovani amastigotes in THP-1 macrophages, DAPI imaging, 72 h | > 10 µM (inactive) |
| CCC(=O)N1[C@@H](CO)[C@@H]2c3ccccc3N(C(=O)c3cnccn3)C[C@@H]21 | L. donovani amastigotes in THP-1 macrophages, DAPI imaging, 72 h | > 10 µM (inactive) |

[in] State, in one line, measured AC50 of `CC(=O)N1[C@H](CO)[C@H](c2ccccc2)[C@@H]1CN(C(=O)c1ccccc1F)C(C)C`
[out] > 10 µM (inactive)

[in] State, in one line, measured AC50 of `CC(C)N(C[C@@H]1N[C@@H](CO)[C@@H]1c1ccccc1)S(=O)(=O)c1ccccc1`
[out] > 10 µM (inactive)

[in] State, in one line, measured AC50 of `O=C(Nc1ccccc1Cl)N1C[C@@H]2[C@H](c3ccccc31)[C@@H](CO)N2C(=O)c1cccnc1`
[out] > 10 µM (inactive)

Data credit: PubChem BioAssay AID977614
